system: P388 leukemia ip, CD2F1 mice, survival T/C; test: NCI In Vivo Anticancer Drug Screen. Data for tumor model P388 Leukemia (intraperitoneal) in CD2F1 (CDF1) mice; details: endpoint: median survival time; dose: 50.0 mg/kg/injection; schedule: Q01DX009 (ip); vehicle: Klucel (hydroxypropylcellulose) (HPC); higher = longer survival
Inconclusive results and toxic doses are left out.
Readout name: T/C

>>> recorded_value("Cc1ccc(N=Cc2ccccc2O)c(Br)c1")
"88 % of control"
>>> recorded_value("Cc1ccc(C(=O)N/N=C/C(=O)O)cc1")
"94 % of control"
>>> recorded_value("C/C(=N\\O)C1(O)CCCCC1")
"108 % of control"
>>> recorded_value("O=S1(=O)CC(c2ccccc2)=NN=C(c2ccccc2)C1")
"93 % of control"
>>> recorded_value("COc1ccc2c(c1[N+](=O)[O-])CCCC(Br)(Br)C2=O")
"107 % of control"
>>> recorded_value("COc1cc2c(/C=N/NS(=O)(=O)c3ccc(C)cc3)c(Cl)[nH]c2cc1C")
"92 % of control"
>>> recorded_value("CCC(=O)C(=O)c1ccc(O)cc1O")
"108 % of control"
>>> recorded_value("O=P1(c2ccccc2)OCC2=C(c3ccccc3)CC2=C1c1ccccc1 (stereo not drawn)")
"105 % of control"
>>> recorded_value("CSc1nc2ccc(CN3C(=O)c4ccccc4C3=O)cc2s1")
"88 % of control"
>>> recorded_value("O=c1ccn(C2OC(CO)C(O)C2Cl)c(=O)[nH]1 (stereo not drawn)")
"105 % of control"
>>> recorded_value("CCOC(=O)NN(C(=O)OCC)C(C(=O)C1CCCCC1)N(NC(=O)OCC)C(=O)OCC")
"102 % of control"
>>> recorded_value("S=C1SCN(c2ccc3c(c2)OCO3)CN1c1ccc2c(c1)OCO2")
"96 % of control"
>>> recorded_value("NC(=S)NNC(=O)c1ccc([N+](=O)[O-])cc1")
"105 % of control"
>>> recorded_value("COc1ccc(C2=CC(c3ccc(OC)cc3)(c3ccc(C(F)(F)F)cc3)C=C(c3ccc(OC)cc3)S2)cc1")
"97 % of control"
>>> recorded_value("Cc1nn(C(=O)c2ccncc2)c(C)c1N=Nc1ccc(S(N)(=O)=O)cc1")
"105 % of control"
>>> recorded_value("Cc1ccc(I)c(C(O)(C(F)(F)F)C(F)(F)F)c1")
"97 % of control"
>>> recorded_value("COc1ccc(C2=Nc3ccccc3SC(c3ccc(OC)cc3)C2)cc1 (stereo not drawn)")
"102 % of control"
>>> recorded_value("O=C1C(=O)N(c2cccc(Cl)c2)C(=O)N1Cc1ccccc1")
"98 % of control"

----------
system: P388 leukemia ip, CD2F1 mice, survival T/C; assay: NCI In Vivo Anticancer Drug Screen. Data for tumor model P388 Leukemia (intraperitoneal) in CD2F1 (CDF1) mice; conditions: endpoint: median survival time; dose: 240.0 mg/kg/injection; schedule: Q01DX005 (ip); vehicle: Klucel (hydroxypropylcellulose) (HPC); higher = longer survival
Toxic doses and inconclusive results are not listed.
Items are presented alongside their recorded T/C.
Readout name: T/C

>>> recorded_value("Cc1ccc(-n2c(=O)nc([O-])[n+]3ccccc23)cc1")
"96 % of control"
>>> recorded_value("CCOC(=O)c1cnc2c(OC)cccc2c1Nc1ccc2c(c1)OCO2")
"96 % of control"
>>> recorded_value("OC1COC(O)(CNCCc2c[nH]c3ccc(OCc4ccccc4)cc23)C(O)C1O (stereo not drawn)")
"87 % of control"

----------
Listing: T/C of selected compounds
system: P388 leukemia ip, CD2F1 mice, survival T/C; assay: NCI In Vivo Anticancer Drug Screen. Data for tumor model P388 Leukemia (intraperitoneal) in CD2F1 (CDF1) mice; conditions: endpoint: median survival time; dose: 100.0 mg/kg/injection; schedule: Q04DX003 (ip); vehicle: Klucel (hydroxypropylcellulose) (HPC); higher = longer survival
Inconclusive results and toxic doses are left out.
Readout name: T/C

>>> recorded_value("CCOC(=O)C1(C)OC1c1ccc([N+](=O)[O-])cc1 (stereo unspecified)")
"97 % of control"
>>> recorded_value("O=S(=O)(CCCl)c1ccccc1")
"104 % of control"
>>> recorded_value("COc1ccc(CN2CCc3c(cccc3[N+](=O)[O-])C2)cc1")
"98 % of control"
>>> recorded_value("O=C(O)Cc1nn[nH]n1")
"107 % of control"
>>> recorded_value("C1COC2(CCC3(CC2)OCCO3)O1")
"101 % of control"
>>> recorded_value("CC1(C)COC(=O)/C1=C\\C#N")
"105 % of control"

----------
test system: P388 leukemia ip, CD2F1 mice, survival T/C; experiment: NCI In Vivo Anticancer Drug Screen. Data for tumor model P388 Leukemia (intraperitoneal) in CD2F1 (CDF1) mice; conditions: endpoint: median survival time; dose: 100.0 mg/kg/injection; schedule: Q01DX009 (ip); vehicle: saline with Tween-80; higher = longer survival
Toxic doses and inconclusive results are not listed.
Readout name: T/C

>>> recorded_value("CC1=NN(C(=O)c2ccncc2)C(=O)C1N=Nc1ccc(S(=O)(=O)Nc2nc(C)cc(C)n2)cc1 (stereo unspecified)")
"95 % of control"
>>> recorded_value("Cn1cccc1[N+](=O)[O-]")
"101 % of control"
>>> recorded_value("CN1C(=O)C/C(=N/Nc2ccccc2)NC1=O")
"100 % of control"
>>> recorded_value("NC(=O)c1nnn(Cc2ccccc2)c1N")
"109 % of control"
>>> recorded_value("c1ccc2[nH]ncc2c1")
"102 % of control"
>>> recorded_value("Cc1ccc(C(=O)Cc2ccc(C#N)cc2)cc1")
"108 % of control"
>>> recorded_value("Cc1ccc(CO)c2ccccc12")
"96 % of control"
>>> recorded_value("O=C(N=c1nc2ccccn2s1)c1ccccc1")
"98 % of control"
>>> recorded_value("ICC1Cc2ccccc2O1 (stereo unspecified)")
"101 % of control"
>>> recorded_value("Cc1ccc(NC(=O)Oc2cc(C)c(Cl)c(C)c2Cl)c([N+](=O)[O-])c1")
"107 % of control"
>>> recorded_value("CCOC(=O)c1cc(OCC)c(OCC)c(OCC)c1N")
"100 % of control"
>>> recorded_value("CCCCCCCCCCCCCCCCS(=O)(=O)CCO")
"90 % of control"
>>> recorded_value("C1SSCSSS1")
"117 % of control"
>>> recorded_value("O=C(O)/C=C/c1csc(-c2ccc(Cl)cc2)n1")
"88 % of control"
>>> recorded_value("CNc1onc(C)c1C")
"105 % of control"
>>> recorded_value("Clc1ccc(Cl)c(N=NNc2cc(Cl)ccc2Cl)c1")
"98 % of control"
>>> recorded_value("CCC(=O)O[C@H]1CC[C@H]2[C@@H]3C[C@H](F)C4=CC(=O)CC[C@]4(C)[C@H]3CC[C@]12C")
"100 % of control"
>>> recorded_value("CN(C)c1ccc(CN2CCCN(Cc3ccc(N(C)C)cc3)C2c2ccncc2)cc1")
"100 % of control"
>>> recorded_value("C=CCC1CCCCC1=O (stereo unspecified) (tested in a mixture with another compound)")
"104 % of control"
>>> recorded_value("CN(C)CCOc1ccccc1Cc1ccccc1")
"100 % of control"
>>> recorded_value("COC1/C=C/OC2(C)Oc3c(C)c(O)c4c(O)c(c(/C=N/N5C(C)CN(Cc6ccc(O)cc6)CC5C)c(O)c4c3C2=O)NC(=O)C(C)=C/C=C/C(C)C(O)C(C)C(O)C(C)C(OC(C)=O)C1C (stereo unspecified)")
"99 % of control"
>>> recorded_value("O=C1CSC(=S)N1CCCN1CCOCC1")
"106 % of control"
>>> recorded_value("Nc1cc(NC=O)ncn1")
"102 % of control"
>>> recorded_value("CC(C)=CCc1cc(O)c(CC=C(C)C)cc1O")
"96 % of control"
>>> recorded_value("O=C1CN(c2ccccc2)C(=O)CN1Nc1ccccc1")
"93 % of control"
>>> recorded_value("CCOC(=O)c1ccc(NC(=S)Nc2ccc(C(=O)OCC)cc2)cc1")
"90 % of control"
>>> recorded_value("O=c1[nH]c(=O)c2n[nH]nc2[nH]1")
"86 % of control"
>>> recorded_value("CSc1cccc(NC(=O)OC2CCCCCCCCCCC2)c1")
"89 % of control"
>>> recorded_value("COC1C(OC(=O)c2ccc(C)[nH]2)C(O)C(Oc2ccc3c(O)c(NC(=O)c4c[nH]c(C(=O)Nc5c(O)c6ccc(OC7OC(C)(C)C(OC)C(OC(=O)c8ccc(C)[nH]8)C7O)c(C)c6oc5=O)c4C)c(=O)oc3c2C)OC1(C)C (stereo unspecified)")
"90 % of control"
>>> recorded_value("Cc1ccccc1CS")
"113 % of control"
>>> recorded_value("COC(=O)C(C)c1cc2ccccc2[nH]1 (stereo unspecified)")
"113 % of control"
>>> recorded_value("CCOC(=O)c1cn[nH]c(=O)c1C")
"96 % of control"
>>> recorded_value("Nc1ccc2c(n1)NCC/C2=N\\Nc1ccc(Br)cc1")
"104 % of control"
>>> recorded_value("O=C(/C=C/c1ccc2c(c1)OCO2)c1ccc(Cl)cc1")
"100 % of control"
>>> recorded_value("NC(Cc1ccc(O)cc1)c1nn[nH]n1 (stereo unspecified)")
"99 % of control"
>>> recorded_value("CCC(C)(C)C(=O)Nc1cccc(OC(=O)NC)c1")
"101 % of control"
>>> recorded_value("O=C1OC(=O)C2CC=CCC12 (stereo unspecified)")
"93 % of control"
>>> recorded_value("Cc1cc(N(c2ccc([N+](=O)[O-])cc2)S(C)(=O)=O)c(C)cc1C=O")
"98 % of control"
>>> recorded_value("CSC1(SC)CCN(C)C1=O")
"92 % of control"
>>> recorded_value("CCOC(=O)C1OC1(C(F)(F)F)C(F)(F)F (stereo unspecified)")
"98 % of control"
>>> recorded_value("COC(=O)CCCCCC(O)C1CCC2OC(=O)CC21C (stereo unspecified)")
"118 % of control"
